- Tested on: ZIKV replicon
- assay_overview: ZIKV replication inhibition assay (NanoLuc replicon in Vero cells)
- settings: Zika virus, Vero, 72 h, read-out: ZIKA Cell_Nanoluc, Vero cells with stable ZIKV replicon, 72 h, Nano-Glo readout
pEC50: −log10 of the molar value.
Reported pEC50 is given for each of the following molecules.

Recorded results for 3 molecules are shown here.
molecule	experimental_target	pEC50
Cc1ncncc1-c1ccc(C[n+]2cc([N-]C(=O)Nc3ccnc(C(F)(F)F)c3)on2)cc1	ZIKV replicon	6.00 to 7.00
O=C(Cc1ccccc1)Nc1cc(NC(=O)[N-]c2c[n+](Cc3ccc(CO)cn3)no2)cc(C2CC2)c1	ZIKV replicon	4.70 to 6.00
CN1CCCCC1C[n+]1cc([N-]C(=O)Nc2cc(NC(=O)Cc3ccccc3)cc(C(F)(F)F)c2)on1 (stereo not shown)	ZIKV replicon	6.00 to 7.00

So what's the measured pEC50 for this one? CN(C)[C@H]1CCC[C@@H]([n+]2cc([N-]C(=O)Nc3cc(NC(=O)Cc4ccccc4)cc(C(F)(F)F)c3)on2)C1
4.70 to 6.00

So what's the measured pEC50 for this one? COc1cc(NC(=O)[N-]c2c[n+](Cc3ccc(-c4c(C)ncnc4C)cc3)no2)ccn1
4.70 to 6.00

So what's the measured pEC50 for this one? Cc1noc(C)c1-c1ccc([C@@H](CN)[n+]2cc([N-]C(=O)Nc3cc(NC(=O)Cc4ccccc4)cc(C(F)(F)F)c3)on2)cc1
4.70 to 6.00

So what's the measured pEC50 for this one? Cc1nnccc1-c1ccc(C[n+]2cc([N-]C(=O)Nc3ccnc(C(F)(F)F)c3)on2)cc1
> 7.00
